Values were extracted from ChEMBL document CHEMBL5058564.

Tested on: U2OS
MEASUREMENT_DESCRIPTION: Incucyte cell viability with U2OS; note: unitless GR value; below 1 slowed growth and below 0 cell loss
Type: toxicity, cell-based
EXPERIMENTAL_SETUP: human, 18 h, 10 µM, compound concentration 10 uM, replicate number 2, timepoint 18 hours
Rule: Growth Rate below 0.9 gives Met, anything at or above gives Not met.

compound=CN1CCN(c2ccc(Nc3c4ccccc4nc4ccccc34)cc2)CC1.Cl.Cl.O category=Met
compound=O=C(Nc1cc(C(F)(F)F)ccc1N1CCCCC1)c1ccncc1 category="Not met"
compound=CCc1nnc(NS(=O)(=O)c2ccc(NC(=S)NC(=O)/C=C/c3ccc(F)cc3)cc2)s1 category=Met
compound=CN1CCc2cc(Cl)c(O)cc2[C@@H](c2ccccc2)C1.Cl category=Met
compound=NC(=O)c1cc2c(-c3ccc(C(=O)NCc4ccnc(Cl)c4)s3)cccc2s1 category=Met
compound=CC[C@H]1OC(=O)[C@H](C)[C@@H](O[C@H]2C[C@@](C)(OC)[C@@H](O)[C@H](C)O2)[C@H](C)[C@@H](O[C@@H]2O[C@H](C)C[C@H](N(C)C)[C@H]2O)[C@@]2(C)CC(C)=C(O2)[C@H](C)[C@@H](O)[C@]1(C)O category="Not met"
compound=C[C@]12N[C@H](Cc3ccccc31)c1ccccc12 category="Not met"
compound="COC[C@@H](c1ccc(C(F)(F)F)cc1)N1CCN(C2(C)CCN(C(=O)c3c(C)ncnc3C)CC2)C[C@@H]1C.O=C(O)/C=C\\C(=O)O [VICRIVIROC MALEATE]" category="Not met"
compound=COc1ccccc1N1CCN(CCCCNC(=O)c2ccc3ccccc3c2)CC1.Cl category="Not met"
compound=CC(C)CC(=O)Nc1cncc(-c2ccc3[nH]nc(-c4nc5c(-c6cccc(F)c6)cncc5[nH]4)c3c2)c1 category="Not met"
compound=N=C(N)NCCC[C@@H](NC(=O)C(c1ccccc1)c1ccccc1)C(=O)NCc1ccc(CNC(N)=O)cc1.O=C(O)C(F)(F)F.O=C(O)C(F)(F)F category="Not met"
compound=OC[C@H]1O[C@@H](n2cnc3c(NC4CCCC4)ncnc32)[C@H](O)[C@@H]1O category="Not met"
compound=COc1ccc(S(=O)(=O)N2C(=O)[C@@](c3ccccc3OC)(N3C[C@H](O)C[C@H]3C(=O)N(C)C)c3cc(Cl)ccc32)c(OC)c1 category="Not met"
compound=CC(=O)c1ccc2c(c1)[C@@H]1C=CC[C@@H]1[C@H](c1cc3c(cc1Br)OCO3)N2 category=Met
compound=CCCCCCNC(=O)Nc1ccc(S(=O)(=O)Nc2ccc(CCNC[C@H](O)COc3ccc(O)cc3)cc2)cc1 category=Met
compound=CC(C)n1cnc2c(Nc3cccc(Cl)c3)nc(N[C@H]3CCCC[C@@H]3N)nc21 category=Met
compound=COc1cc(Nc2ncc3c(n2)-c2ccc(Cl)cc2C(c2c(F)cccc2OC)=NC3)ccc1C(=O)O category=Met
compound=COC(=O)Nc1nc2ccc(C(=O)c3cccs3)cc2[nH]1 category=Met
compound=C[C@@H](OC[C@@]1(c2ccccc2)CC[C@]2(CCC(=O)N2)CN1)c1cc(C(F)(F)F)cc(C(F)(F)F)c1 category=Met
compound=CC1=C(C)C(=O)C(C(C)(C)CC(=O)N(CCCCSC[C@H]2O[C@@H](n3cnc4c(N)ncnc43)[C@@H]3OC(C)(C)O[C@@H]32)Cc2cccc(-c3ccc(Cl)cc3)c2)=C(C)C1=O category=Met
